Origin of the recorded values: ChEMBL document CHEMBL5260802

- protocol: Clearance in Sprague-Dawley rat at 1 mg/kg,iv and measured after 72 hrs by LC/MS/MS analysis
- Assay type: ADME, organism-based
- run parameters: in vivo
assay readout: clearance (mL/min/kg)
Numbers only, in mL/min/kg.

INSERT INTO assay_data (smiles_string, assay_readout, quantity_unit, reported_value) VALUES
  ('CN1CCCC[C@@H](N(c2cc(C#CC(C)(C)C)sc2C(=O)O)C(=O)[C@H]2CC[C@H](C)CC2)C1=O', 'clearance', 'mL/min/kg', 15.9),
  ('CN1CCCC[C@H](N(c2cc(C#CC(C)(C)C)sc2C(=O)O)C(=O)[C@H]2CC[C@H](C)CC2)C1=O', 'clearance', 'mL/min/kg', 16.1);

Continue with the next molecule.
Incoming: Consider the molecule CN1CC[C@H](N(c2cc(C#CC(C)(C)C)sc2C(=O)O)C(=O)[C@H]2CC[C@H](C)CC2)C1=O . State its measured clearance.
Outgoing: 73.7
